target of assay: Human MTAP (Homo sapiens)
Construct: six-histidine tag (His6) (N); made in house; host or cells: E. coli BL21 DE3
Sequence (Q13126 whole entry): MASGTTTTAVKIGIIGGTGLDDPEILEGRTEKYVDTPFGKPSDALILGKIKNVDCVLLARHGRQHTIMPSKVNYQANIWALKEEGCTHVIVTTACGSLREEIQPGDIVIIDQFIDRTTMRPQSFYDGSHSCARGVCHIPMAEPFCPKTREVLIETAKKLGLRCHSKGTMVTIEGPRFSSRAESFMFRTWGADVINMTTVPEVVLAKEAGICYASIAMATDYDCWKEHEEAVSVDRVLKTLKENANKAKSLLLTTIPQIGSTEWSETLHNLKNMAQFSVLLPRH
method notes: MTAP substrate assay, coupled spectrophotometric (adenine, xanthine oxidase)
Format: biochemical
condition: 10 min; compound 50 uM, 2 nM MTAP, relative to MTA at 50 uM; read-out: MT-A—50: initial velocity as a percentage of the initial velocity with MTA as substrate
parameter: activity at 50 µM

In [3]: df
Out[3]:
                               query_smiles            target_of_assay          parameter  test_result
0  Cc1nnc(SC[C@H]2O[C@@H](n3cnc4c(N)ncnc43)[C@H](O)[C@@H]2O)n1C  Human MTAP (Homo sapiens)  activity at 50 µM          47%
1  Nc1ncnc2c1ncn2[C@@H]1O[C@H](CSc2ccccc2C2=NCCCN2)[C@@H](O)[C@H]1O  Human MTAP (Homo sapiens)  activity at 50 µM          23%
2  COc1ccc2[nH]c(SC[C@H]3O[C@@H](n4cnc5c(N)ncnc54)[C@H](O)[C@@H]3O)nc2c1  Human MTAP (Homo sapiens)  activity at 50 µM         2.5%
3  Cc1nnc(SC[C@H]2O[C@@H](n3cnc4c(N)ncnc43)[C@H](O)[C@@H]2O)s1  Human MTAP (Homo sapiens)  activity at 50 µM          23%
4  Nc1ncnc2c1ncn2[C@@H]1O[C@H](CSc2cccc(Cl)c2)[C@@H](O)[C@H]1O  Human MTAP (Homo sapiens)  activity at 50 µM          18%
5  Cc1occc1SC[C@H]1O[C@@H](n2cnc3c(N)ncnc32)[C@H](O)[C@@H]1O  Human MTAP (Homo sapiens)  activity at 50 µM          26%
6  Cc1nccnc1SC[C@H]1O[C@@H](n2cnc3c(N)ncnc32)[C@H](O)[C@@H]1O  Human MTAP (Homo sapiens)  activity at 50 µM          10%
7  Nc1ncnc2c1ncn2[C@@H]1O[C@H](CSc2ccccc2[N+](=O)[O-])[C@@H](O)[C@H]1O  Human MTAP (Homo sapiens)  activity at 50 µM           5%

---

target of assay: Human MTAP (Homo sapiens)
Construct: six-histidine tag (His6) (N); made in house; host or cells: E. coli BL21 DE3
method notes: MTAP substrate assay, coupled spectrophotometric (adenine, xanthine oxidase)
Type: biochemical
condition: compound 10 uM, 2 nM MTAP, relative to MTA at 10 uM
parameter: MT-A—10: initial velocity as a percentage of the initial velocity with MTA as substrate (%)

>>> df
                                   molecule            target_of_assay  test_result
0  CNC(=O)c1ccccc1SC[C@H]1O[C@@H](n2cnc3c(N)ncnc32)[C@H](O)[C@@H]1O [2(G)(161)]  Human MTAP (Homo sapiens)         14.5
1  CCC(C)CSC[C@H]1O[C@@H](n2cnc3c(N)ncnc32)[C@H](O)[C@@H]1O (some centres unmarked) [2(G)(71)]  Human MTAP (Homo sapiens)           77
2  Cc1cc(C)nc(SC[C@H]2O[C@@H](n3cnc4c(N)ncnc43)[C@H](O)[C@@H]2O)n1 [2(G)(154)]  Human MTAP (Homo sapiens)           39
3  Nc1ncnc(SC[C@H]2O[C@@H](n3cnc4c(N)ncnc43)[C@H](O)[C@@H]2O)n1 [2(G)(55)]  Human MTAP (Homo sapiens)           43
4  Nc1ncnc2c1ncn2[C@@H]1O[C@H](CSc2nc(O)c3cc[nH]c3n2)[C@@H](O)[C@H]1O [2(G)(64)]  Human MTAP (Homo sapiens)           48
5  Nc1ncnc2c1ncn2[C@@H]1O[C@H](CSc2ccccc2C(F)(F)F)[C@@H](O)[C@H]1O [2(G)(82)]  Human MTAP (Homo sapiens)            1
6  C=CCSC[C@H]1O[C@@H](n2cnc3c(N)ncnc32)[C@H](O)[C@@H]1O [2(G)(44)]  Human MTAP (Homo sapiens)           77
7  COc1ccc(OC)c(SC[C@H]2O[C@@H](n3cnc4c(N)ncnc43)[C@H](O)[C@@H]2O)c1 [2(G)(24)]  Human MTAP (Homo sapiens)            4
